The measurements presented in this section are drawn from paper PMC9090415.

Field: % inhibition T4 40' 80. Provide a value for each of the compounds that follow.
- TARGET_OR_TEST_SYSTEM: bacteriophage T4 DNA polymerase (Enterobacteria phage T4)
- Construct: made in house
- Sequence (P04415 1-898): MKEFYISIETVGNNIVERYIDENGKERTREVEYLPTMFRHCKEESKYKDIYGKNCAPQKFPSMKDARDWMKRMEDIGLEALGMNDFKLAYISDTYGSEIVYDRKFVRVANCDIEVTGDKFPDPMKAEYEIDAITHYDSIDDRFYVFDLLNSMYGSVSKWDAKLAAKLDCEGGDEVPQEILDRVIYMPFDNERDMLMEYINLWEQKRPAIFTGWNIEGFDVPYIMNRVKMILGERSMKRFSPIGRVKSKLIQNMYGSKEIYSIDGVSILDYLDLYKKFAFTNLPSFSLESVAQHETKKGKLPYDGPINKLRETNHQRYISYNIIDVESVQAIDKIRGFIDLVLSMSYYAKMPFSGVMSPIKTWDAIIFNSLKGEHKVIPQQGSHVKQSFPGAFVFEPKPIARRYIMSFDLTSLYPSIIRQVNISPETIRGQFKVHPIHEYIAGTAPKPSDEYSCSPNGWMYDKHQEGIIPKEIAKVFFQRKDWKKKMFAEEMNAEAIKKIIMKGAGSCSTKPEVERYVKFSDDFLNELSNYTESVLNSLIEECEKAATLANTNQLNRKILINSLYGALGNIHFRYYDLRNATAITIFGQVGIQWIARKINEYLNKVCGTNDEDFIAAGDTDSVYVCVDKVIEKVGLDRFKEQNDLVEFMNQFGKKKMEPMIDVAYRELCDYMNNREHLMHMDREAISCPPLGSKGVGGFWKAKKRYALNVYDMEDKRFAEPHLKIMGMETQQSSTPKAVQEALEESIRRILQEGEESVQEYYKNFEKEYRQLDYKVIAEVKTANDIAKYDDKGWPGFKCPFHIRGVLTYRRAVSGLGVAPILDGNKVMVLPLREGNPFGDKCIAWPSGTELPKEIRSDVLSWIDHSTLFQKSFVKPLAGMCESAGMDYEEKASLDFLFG
- TEST_DETAILS: Counter-screen against bacteriophage T4 DNA polymerase
- Assay type: biochemical
- TEST_CONTEXT: DRC-2; read at 40'; concentration 80
Numbers only, in %.

Some compounds with known % inhibition T4 40' 80 results, for comparison:
COMPOUND	MEASURED_METRIC	OBS_VALUE
COc1ccc(/C=C/c2cc(C(=O)O)c3ccccc3n2)cc1	% inhibition T4 40' 80	26
Cn1nc(-c2nc(-c3ccccc3)no2)c2c1CCN(C(=O)Cc1cccs1)C2	% inhibition T4 40' 80	25
N#Cc1c(O)nc(N2CCCCC2)nc1-c1ccc2c(c1)OCO2	% inhibition T4 40' 80	3.39
O=C(CCc1csc(NC(=O)Nc2ccccc2)n1)Nc1nc2ccccc2s1	% inhibition T4 40' 80	14
CC(=O)Nc1cc(C(=O)c2cccs2)nn(-c2ccc(Cl)cc2)c1=O	% inhibition T4 40' 80	0.303

Okay, here is my list. What is % inhibition T4 40' 80 for each of these?
1. Cc1cccc(-c2noc(C(=O)NNC(=O)C(Cl)(Cl)Cl)n2)c1
2. Cc1ccc(N2CCC(NC(=O)Cc3cccs3)C2=O)cc1C (centres unmarked)
3. CC(=O)OCC1=C(C(=O)[O-])N2C(=O)[C@@H](NC(=O)Cc3cccs3)[C@H]2SC1.[Na+]

-4.34
35
42

====

- TARGET_OR_TEST_SYSTEM: UniProt:Q8ILY1
- TEST_DETAILS: Fluorescence-based high-throughput DNA polymerase assay (molecular beacon), primary screen and dose-response
- Format: biochemical
- TEST_CONTEXT: DRC-1; 90'; concentration 20
MEASURED_METRIC: % inhibition Apol 90' (%)
Give bare numbers, in %.

Some compounds with known % inhibition Apol 90' results, for comparison:
STRUCTURE_STRING	% inhibition Apol 90', %
O=[N+]([O-])c1ccc(/C=C/c2ccc3ccccc3n2)o1	78.6772
O=C1C(=Cc2ccccc2O)Oc2ccc(O)cc21	24.1034
COc1ccc(CNC(=O)Cn2nc3c(c2NC(=O)Cc2cccs2)CSC3)cc1	39.7839

Then this compound:
Please look at this compound and report its % inhibition Apol 90': Cn1nc(C(=O)N2CCc3c(nc4cc(-c5ccccc5)[nH]n4c3=O)C2)c2ccccc21
59

====

- TARGET_OR_TEST_SYSTEM: UniProt:Q8ILY1
- TEST_DETAILS: Fluorescence-based high-throughput DNA polymerase assay (molecular beacon), primary screen and dose-response
- Format: biochemical
- TEST_CONTEXT: DRC-2; concentration 10; 5'
MEASURED_METRIC: % inhibition Apo pol 5' (%)
Answers are plain numbers, in %.

MOLECULE	UNITS_SYMBOL	% inhibition Apo pol 5'
CCCN1COc2ccc3c(=O)c(-c4ccccc4)coc3c2C1	%	25
O=C1c2ccccc2C(=O)c2c1oc1c3c(ccc21)OCN(C1CCCC1)C3	%	42
COc1ccc(C=C2Oc3c(ccc4c3CN(Cc3ccco3)CO4)C2=O)c(OC)c1	%	33

Okay, here is my list. What is % inhibition Apo pol 5' for each of these?
1. Cc1ccnc(NS(=O)(=O)c2ccc(-n3cccc3)cc2)n1
2. COc1ccc(NC(=O)Cn2nc3c(cc2=O)CCC3)cc1Cl
3. CCCCCc1c2c(cc(O)c1C(=O)O)OC(=O)c1c(cc(OC)cc1C(=O)CCCC)O2
4. CCc1ccccc1NC(=O)c1ccc(-c2ncccc2NC(C)=O)cc1
5. Nc1ncnc(NC2CCCCC2)c1[N+](=O)[O-]
6. O=C(Nc1c2c(nn1-c1ccccc1)CSC2)c1ccco1
7. Cc1cc(C)nc(Nc2nc(CC(=O)Nc3nc(-c4ccco4)cs3)cs2)n1
8. O=C(Cn1ccc2c(=O)[nH]ccc21)Nc1ccccc1Cl [Molecule 19, O=C(Cn1ccc2c1cc[nH]c2=O)Nc1ccccc1Cl]

41
52
42
27
20
44
37
48

====

- TARGET_OR_TEST_SYSTEM: P. falciparum apicoplast DNA polymerase (Pf-apPOL) (Plasmodium falciparum)
- Sequence (Q8ILY1 entry or part of it): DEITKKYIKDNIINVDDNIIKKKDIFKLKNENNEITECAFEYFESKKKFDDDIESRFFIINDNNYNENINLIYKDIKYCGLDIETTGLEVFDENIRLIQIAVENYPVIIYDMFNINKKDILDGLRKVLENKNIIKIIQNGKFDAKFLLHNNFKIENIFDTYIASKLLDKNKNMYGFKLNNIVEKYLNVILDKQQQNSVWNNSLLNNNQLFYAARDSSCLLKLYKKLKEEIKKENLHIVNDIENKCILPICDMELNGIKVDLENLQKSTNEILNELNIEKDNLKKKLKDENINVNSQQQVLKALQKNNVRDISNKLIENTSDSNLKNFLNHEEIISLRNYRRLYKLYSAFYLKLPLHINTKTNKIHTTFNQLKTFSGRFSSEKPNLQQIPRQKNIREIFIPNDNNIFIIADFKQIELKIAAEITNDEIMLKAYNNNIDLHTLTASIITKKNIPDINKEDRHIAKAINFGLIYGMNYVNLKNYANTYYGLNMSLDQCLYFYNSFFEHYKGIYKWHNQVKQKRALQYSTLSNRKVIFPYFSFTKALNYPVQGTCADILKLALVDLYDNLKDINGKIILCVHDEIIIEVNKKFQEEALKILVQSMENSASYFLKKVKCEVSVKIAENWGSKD
- TEST_DETAILS: Fluorescence-based high-throughput DNA polymerase assay (molecular beacon), primary screen and dose-response
- Type: biochemical
- TEST_CONTEXT: DRC-2; concentration 10; 90'
- Excerpt: The HT assay employs a molecular beacon, a stem-loop DNA template with a Cy3 dye and the Black Hole Quencher on the 3′ and 5′ ends of the DNA, respectively. Pf-apPOL concentration is based on a calculated absorptivity of ε280 = 56750 M^−1 cm^−1. […] To identify apPOL inhibitors we utilised our previously developed high-throughput DNA polymerase assay. […] The assay accurately recapitulates the kinetic behaviour of apPOL, as measured through more conventional low-throughput gel-based assays. […]
Quick rule for you: % inhibition ApPOL 90' at 20% or higher means yes (1), lower means no (0).

Known results for compounds:
COMPOUND	TARGET_OR_TEST_SYSTEM	CATEGORY
CCOc1ccc2cc(C3=NN(C(=O)CCC(=O)O)C(c4ccc(C)cc4)C3)c(=O)[nH]c2c1 (stereo not drawn)	P. falciparum apicoplast DNA polymerase (Pf-apPOL) (Plasmodium falciparum)	yes (1)
COc1ccc(-c2occ(C(=O)O)c2C(=O)O)cc1	P. falciparum apicoplast DNA polymerase (Pf-apPOL) (Plasmodium falciparum)	yes (1)
O=[N+]([O-])c1ccc(SCc2ccco2)c2cccnc12	P. falciparum apicoplast DNA polymerase (Pf-apPOL) (Plasmodium falciparum)	yes (1)
O=C(Cc1cccs1)N1CCN(c2nc(CN3CCOCC3)cs2)CC1	P. falciparum apicoplast DNA polymerase (Pf-apPOL) (Plasmodium falciparum)	yes (1)
O=C(O)c1cc([N+](=O)[O-])c(N2CCN(c3cccc(C(F)(F)F)c3)CC2)c([N+](=O)[O-])c1	P. falciparum apicoplast DNA polymerase (Pf-apPOL) (Plasmodium falciparum)	no (0)
Nc1ncnc(NC2CCCCC2)c1[N+](=O)[O-]	P. falciparum apicoplast DNA polymerase (Pf-apPOL) (Plasmodium falciparum)	no (0)
O=C(Nc1c2c(nn1-c1ccccc1)CSC2)c1ccco1	P. falciparum apicoplast DNA polymerase (Pf-apPOL) (Plasmodium falciparum)	yes (1)
COc1cc(/C=C2\C(=O)N(c3ccc(C(=O)O)cc3)N=C2C(F)(F)F)ccc1OCC(C)C	P. falciparum apicoplast DNA polymerase (Pf-apPOL) (Plasmodium falciparum)	yes (1)

Does % inhibition ApPOL 90' meet or surpass 20% for Cc1ccnc(NS(=O)(=O)c2ccc(-n3cccc3)cc2)n1 ?
yes (1)

====

- TARGET_OR_TEST_SYSTEM: P. falciparum apicoplast DNA polymerase (Pf-apPOL) (Plasmodium falciparum)
- TEST_DETAILS: Fluorescence-based high-throughput DNA polymerase assay (molecular beacon), primary screen and dose-response
- Assay type: biochemical
- TEST_CONTEXT: DRC-2; read at 90'; concentration 5
MEASURED_METRIC: % inhibition ApPOL 90' 5

Some molecules with known % inhibition ApPOL 90' 5 results, for comparison:
MOLECULE	% inhibition ApPOL 90' 5
COc1ccc(C2CC(c3ccc(Cl)cc3Cl)Nc3nc(N)nn32)cc1OC (stereo not shown)	29%
O=C1CSC2=NC3=C(CCc4ccccc43)C(c3cccs3)N12 (stereo not shown)	10%
Cc1ccc(N2CCC(NC(=O)Cc3cccs3)C2=O)cc1C (stereo not shown)	5%
Cc1cccc(-c2noc(C(=O)NNC(=O)C(Cl)(Cl)Cl)n2)c1	2.46%
COc1ccc(/C=C/c2cc(C(=O)O)c3ccccc3n2)cc1	36%

Okay, here is my list. What is % inhibition ApPOL 90' 5 for each of these?
1. COc1ccccc1CC(=O)N1CCc2c(nc3cc(-c4ccccc4Cl)[nH]n3c2=O)C1
2. Cc1cc2[nH]c(C(=O)Nc3ccc(F)cc3)c(CN3CCOCC3)c2s1

1. 18%
2. 2.6%
